- method.description: DUX4 transcriptional activity inhibition in cells – 293T cells, Gaussia and Italica luciferase, primary screen (AID 1224904);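 further: 0% = median of neutral control wells and -100% = median of positive control wells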
- condition.notes: 293T-iDUX4 ZSCAN4-Gaussia luciferase reporter, 24 h; measured here: Italica tet-on control reporter; stronger effect = lower value; concentration not given here
Out of some 37,000 compounds screened, about 290 (0.78%) were called active. Inconclusive results (about 10%) are left out. The sample holds actives, similar compounds and a random draw of the others, so the mix is not that of the screen.
activity change, negative = inhibition values for the compounds below.
assay.readout: activity change, negative = inhibition (%)

1. O=C(CN1CCOCC1)N1CCCCN2[C@H](CO)[C@H](c3ccc(Br)cc3)[C@H]2C1 ... -4.46
2. C[C@@H]1CC=CC[C@H](c2ccc(F)cc2)NC(=O)[C@@H](Cc2ccccc2)N(C)C(=O)c2ccccc2O1 (mixture of isomers) ... -1.88
3. COc1ccc(NC(=O)Nc2ccc3c(c2)[C@@H]2C[C@@H](CC(=O)NCc4ccncc4)O[C@@H](CO)[C@@H]2O3)cc1 ... 2.02
4. O=C(C[C@@H]1CC[C@@H](NC(=O)Nc2ccc(F)cc2)[C@@H](CO)O1)NCCN1CCCC1 ... -1.07
5. CCC(=O)Nc1ccc2c(c1)C(=O)N(C)C[C@H](OC)[C@@H](C)CN(Cc1nccs1)[C@H](C)CO2 ... 4.67
6. CCCNC(=O)[C@@H]1[C@@H](CO)[C@@H]2Cn3c(cccc3=O)[C@H]1N2C(=O)Nc1cc(F)ccc1F ... 10.8
7. N#Cc1ccc(-c2ccc(C3[C@@H]4CN(S(=O)(=O)c5ccc(F)cc5)C[C@H]3N4)cc2)cc1 (stereo partly specified) ... 11.7
8. CN1C(=O)c2cc(NC(=O)c3cnccn3)ccc2OC[C@@H]2O[C@H](CC(=O)NC3CCC3)CC[C@@H]21 ... 0.171
9. CNC[C@H]1Oc2ncc(C#Cc3ccccc3F)cc2C(=O)N([C@H](C)CO)C[C@H]1C ... -1.01
10. C[C@@H](NC(=O)[C@@H]1[C@@H](CO)[C@@H]2Cn3c(ccc(C4=CCCCC4)c3=O)[C@@H]2N1C)c1ccccc1 ... 1.39
11. CCCNC(=O)[C@@H]1[C@@H](CO)[C@@H]2Cn3c(cccc3=O)[C@H]1N2C(=O)C1CCC1 ... 1.58
12. CN1CCN(C(=O)C[C@@H]2CC[C@@H]3[C@H](COC[C@@H](O)CN3Cc3cccc(F)c3)O2)CC1 ... -1.22
13. C[C@H](NC(=O)C[C@@H]1CC[C@@H]2[C@H](COC[C@@H](O)CN2Cc2cc(F)ccc2F)O1)c1ccccc1 ... 1.93
14. Cc1cc(C(=O)Nc2ccc3c(c2)C(=O)N(C)[C@H]2CC[C@H](CC(=O)NCC(F)(F)F)O[C@@H]2CO3)no1 ... 1.49
15. CCN(C[C@@H]1[C@@H](c2ccccc2)[C@H](CO)N1C(C)=O)C(=O)NC(C)C ... -1.07
16. CC(C)CC#Cc1ccc([C@@H]2[C@@H](CO)N3C(=O)CN(C(=O)c4cnccn4)C[C@@H]23)cc1 ... 4.38
